- Method: yeast display, Sf9 membrane polyspecificity reagent, FACS + sequencing; frameworks hold sequencing errors
Value type: polyreactivity (PSR sort gate)

Sequence record	Result
QVQLVESGGGLVQAGGSLRLSCADSGITIVWYAIGWYRQAPGKERELVAAISRGGGSTYYADSVKGRFTISRDNAKNTVYLQMNSLKPEDTAVYYCAASGGYTFDWLEFDYWGQGTQVTVSS	low polyreactivity
QVQLVESGGGLVQAGGSLRLSCAASGSTFTTHVMGWYRQAPGKERELVAAISWSSGSTYYADSVKGRFTISRDNEKNTVYLQMNSLKPEDTAVYYCDARLVIFYPYSRYYFWGQGTQVTVSS	high polyreactivity
QVQLVESGGGLVQAGGSLRLSCAASGRIFYANAMGWYRQAPGKERELVAGISSGGITNYADSVKGRFTISRDNAKNTVYLQMNSLKPEDTAVYYCAVESWNRWRNRNDYWGQGSQVTVSS	low polyreactivity
QVQLVESGGGLVQAGGSLRLSCAASGYTFGSYAMGWYRQAPGKERELVAAISKRGGRTYYADSVKGRFTISRDNAKNTVYLQMNSLKPEDTAVYYCAKDYPKYDYWGQGTQVTVSS	high polyreactivity
QVQVVESGGGLVQAGGSLRVICAASGSTFYRNAMGWYRQAPGKEWELVAAITRSASSTYYADSVKGRFTISRDNAKNNVDLQLNSLKPEDTAVYYCAAKRRVSHLDYWGQGTQVNVSS	high polyreactivity
QVQLVESGGGLVQAGGSLRLSCAASGRIFGNNVMGWYRQEPGKERELVAAITFSGTSTYYADSVKGRFTISRDNAKNTVYLQMNSLKPEDTAVYYCAKYRYADYYSPGYDYWGQGTQVTVSS	low polyreactivity
QVQLVESGGGLVQAGGSLRLSCAASGRIFGSYAMGWYRQAPGKERELVAAISWSGGRTYYADSVKGRFTISRDNAKNTVYLQMNSLKPEDTAVYYCNALVFGRYRDMDYWGQGTQVTVSS	high polyreactivity
QVQLVESGGGLVQAGGSLRLSCAASGRIFRGYAMGWYRQAPGTERELVAAISRRGGSTYYAASVKGRFTISRDNAKNTVYLQNNSLKPEDTAVYYCNADGVHYVAYAGGYWGQGTQVTVSS	high polyreactivity
QVQLVESGGGLVQAGGSLRLSCAASGSIFYLNAMGWYRQAPGKERDLVAAIRWSGGSTRYADSVKGRCTISRDNAKNTVYLQMNSLKPEDTAVYYCAKYNPVLVYHWWYYYWGQGTQVTVSS	high polyreactivity
QVQLVESGGGLVQAGGSLRLSCAASGSTFNVYAMGWYRQAPGKERELVASIRTSGTRTYYADSVKGRFTISRDNAKNTVYLQMNSLKPEDTAVYYCNARYYSNLRRHGGYWGQGTQVTVSS	high polyreactivity
QVQLVESGGGLVQAGGSLRLSCAASGRIFTRYAMGWNRQAPGKETELGAAITASGGRTYYADSVKGRFTISRDNAKNTVYLQMNSLKPEDTAVYYCAATYHRYYETQDSYDYWGQGTQLTVSS	high polyreactivity

* * *

- Method: yeast display, Sf9 membrane polyspecificity reagent, FACS + sequencing; frameworks hold sequencing errors

Sequence record	polyreactivity (PSR sort gate)
QVPLVESGVGLVHAGGSLRISCATSGITFAYYFMGWYRQAPGKERELVAAISWTGSSTYYADSVKWRFTISRDNAKNTVYLQMNSLKQEDTAVYYCAARQRYLYDYWGQGTQVNVSS	high polyreactivity
QVQLVESGGGLVQSGGSLLLSCAPSGSTFYEYALGGYRQAPGKDRELVAAITSGGSTYYADSVKGRFTISRDNAKNNDYLQMNSLKPEETAVYYCAADPRIRRGDRSTHGYDYWGQGTQVTVSS	low polyreactivity
QVQLVESGGGLVQAGGSLRLSCAASGSTFVRNGMGWYRQSPGKVRELVASISGRGGSTYYADSVKGRFTISRDNAKNTVYLQMNSLKPEDTAVYYCAARKQRGGGPTFDYWGQGTQVTVSS	high polyreactivity
QVQLVESGGGLVQAGGSLRLSCAASGNTFRRYAMGWYRQAPGKEREFVAAISSSGGRTYYADSVKGRFTISRDNAKNTVYLQMNSLKPEDTAVYYCNAVSYWVRGEMDYWGQGTQVTVSS	high polyreactivity
QVQLVESGGGLVQAGGSLRLSCAASGRTFYNYAMGWYRQAPGKERELVAAITRGGSTYYADSVKGRFTISRDNAKNTVYLQMNSLKPEDTAVYYCNAYYYIPFEGRGYSKMDYWGQGTQVTVSS	high polyreactivity
QVQLVESVVGLVQAGVSLRLSCSASGFIFGRYAMGWYRQAPGKERELVADISWNGGSTYYADSVKGRFTISRDNAKNTVYLQMNSLKPEDTAVYYCAADYYWASFKYPYLRPYDYWGLGTQVTVSS	high polyreactivity
QVQLVESGGGLVQAGGSLRLSCAASGSIFGWYAMGLYRQAPGKERELVAAITFSSVSTYYADSVKGRFTISRDNAKNTVYLQMNSLKPEVTAVYYCGAVVYYTFDYWVQGTQVTVSS	low polyreactivity
QVQLVESGGGLVQAGGSLRLSCAASGIIFGYYAMGWKRQAPGKERELVAAIDWTGGNTYYADSVKGRFTSSRDNAKNTVYLQMNSLKPEDTAVYYWAADSNSQEDYWGQGTQVTVSS	low polyreactivity
QVQLVESGGGLVQAGGSLRLSCAASGFTFPGYVMGWYRQAPGKERELVAAISRSGGRTYYADSVKGRFTISRDNAKNTVYLQMNSQKPDDTAVYYCNTPDPGRDSDYWGQGTQVTVSS	high polyreactivity
QVQLVESGGGLVQAGGSLRLSCAASGRIFNVYAMGWYRQAPGKERELVASITSAGSTYYADSVKGRFTISRDNAKITVYLQMNSLKPEDTAVYYCAADSYSVYYYTYDSWGQGTQVTVSS	low polyreactivity
QVQLVESGGGLVQAGGSLRLSCAASGFTFWDYTMGWYRQAPGKERELVAAITRSGGRTYYADSVKGRFTISRDNAKNTVYLQMNSLKPEDTAVYYCAAKIWSKDEKHDYWGQGTQVTVSS	high polyreactivity
QVQLVESGGGLVQAGGSLRLSCAASGSTFTTYAMGWYRQAPGKERELVAAISRTGGVTYYADTVKGRFTISRDNGKKTVYLQMNSLKPDDTAVYYCNAGLFRGAQFDYWGLGTQVTVSS	high polyreactivity
QVQLVESGGGLVQAGGSLRLSCAASGSTFHTYGLGWYRQAPGKERELVAAIDLSDGSTYYADSVKGRFTISRDNAKNTVYLQMNSLKPADTAVYYCKADYFPKPYRPDDYWGQGTQVTVSS	low polyreactivity
QVQLVESGGGLVQAGGSLRLSCAASGSTFPYNAMGWYRQAPGKERELVAAITSSGRTNYADSVKGRFTISRDNANNTVYLQMNSLKPEDTAVYYCAAARWYAHRVDYWGQGTQVTVSS	low polyreactivity
QVQLIESGGVLVQAGGSLRLSCAASGSTFTINVMGWYRQAPGKERELVAAINGGGRTNYADSVKGRFTISRDNAKNTVYLQINSLKPEDTAVYYCAADGLSNVRQMDYWGQGTQVTVSS	low polyreactivity
QVQLVESGGGLVQAGGSLRLSCAASGSIFYTYAMGWYRQAPGKERELVAAISWSDTTTYYAVSVKGRFTISRDSAKNTVYLQMNSLKPEDTAVYYFAADAYTNSYWYDYWGQGTQVTLSS	high polyreactivity
QVQLVESGGGLVQAGGSLRLSCAASGFTFYTNVMGWYRQAPGKERELVAAINSGGSTNYADSVKGRFTISRDNAKNTVYLQRNSLKPEDTAVYYCNKRGTEIGYDYWGQGTQVTVLS	low polyreactivity
QVQLVESGGGLVQAGGSLRLSCAASGSTFTTNAMGWYIQAPGKERELVATISGGSTNYADSVKGRFTISRDNAKNTVYLQMNSLKPEDTAVYYCNTDGEVTYDYWGQGTQVTVSS	low polyreactivity
QVQLVETGGGLVQAGGSLRLSCAASGRTFLYYAMGWYRPEPGKERELDAAIRRGSSTYYADSVKGRFTISRDKAKNTVYLQMNSLKPEDTAVYYCAARGRYRIGQGRYGKRYDYWGQGTQVTVSS	high polyreactivity
QVQLVESGGGLVQAGGSLRLSCAASGSTFYRNAMGWYRQAPGKERELVAAITSRGTRTFYADSVKGRFTISRDNAKNTVYLQMNSLKPEDTAVYYCAVTYQAEDEYDYWGQGTQVTVSS	low polyreactivity
QVQLVESGGGLVQAGGSLRLSCAASGNTFVRNAMGWYRQAPGKERELVASISQSGGTTYYADSVKGRFTISRDNAKNTVYLQMNSLKPEDTAVYYCNAARYRRSPGHTKYNYWGQGTQVTVSS	high polyreactivity
